- system: HLA-A0207 (Homo sapiens, UniProt P04439, D140Y/D185E/D98H/E176V/E277Q/G131W/G231S/I119V/I121R/I166T/I218V/L300P/L318F/N151K/N90K/P208A/P217A/Q86G/Q94H/R138H/R169H/T345S/Y123C)
- Construct: expressed in transfected cells; host or cells: HMy2.CIR
- experimentSummary: cell-based
- Format: binding
- conditionDetails: HLA-A0207 HMy2.CIR cells; competitor peptide 15μM; 24 hours; flow cytometry; read-out: 15μM Inhibition (%)
Residues, ends and D or L forms follow the SMILES beside them.
Assignment: determine reported inhibition at 15 µM for the given compounds.
Kindly provide the numeric value in % only, without the unit symbol.

Dear colleague, please send me the reported inhibition at 15 µM for CC(C)C[C@H](NC(=O)[C@H](CO)NC(=O)[C@H](Cc1ccccc1)NC(=O)[C@H](Cc1ccccc1)NC(=O)CNC(=O)[C@H](C)NC(=O)[C@H](CCC(N)=O)NC(=O)[C@@H](N)CC(C)C)C(=O)N[C@H](C(=O)N[C@@H](CCCCN)C(=O)O)[C@@H](C)O [Epitope P103] (H-LQAGFFSLTK-OH; N-terminus and C-terminus assumed) when you can. 44

Dear colleague, please send me the reported inhibition at 15 µM for CC(C)C[C@H](NC(=O)[C@@H](NC(=O)[C@@H](N)CO)[C@@H](C)O)C(=O)N1CCC[C@H]1C(=O)N[C@@H](CCC(=O)O)C(=O)N[C@H](C(=O)N[C@H](C(=O)N[C@H](C(=O)N[C@H](C(=O)N[C@@H](CCCNC(=N)N)C(=O)O)C(C)C)C(C)C)[C@@H](C)O)[C@@H](C)O [Epitope P42] when you can. 45

Dear colleague, please send me the reported inhibition at 15 µM for CSCC[C@H](NC(=O)[C@@H](N)CCSC)C(=O)N[C@@H](Cc1c[nH]c2ccccc12)C(=O)N[C@@H](Cc1ccc(O)cc1)C(=O)N[C@@H](Cc1c[nH]c2ccccc12)C(=O)NCC(=O)N1CCC[C@H]1C(=O)N[C@@H](CO)C(=O)N[C@@H](CC(C)C)C(=O)O [Epitope P72] when you can. 54
